# Tested on: HepG2 cells
# PROTOCOL SUMMARY: In vitro HDL internalization in human hepatocytes (HepG2) cells
# Format: cell-based
# CONDITION NOTES: compound 1 μM; 3H-labeled HDL 75 μg/ml, 10 min at 37° C.
EXPERIMENTAL READOUT: impact on HDL uptake by HepG2 cells

Please review the entries below; each comes with its answer.
The compound O=C(C1OCCc2ccccc21)N1CCC2(CC1)Nc1ccccc1-n1cccc12 (centres unmarked) showed impact on HDL uptake by HepG2 cells equal to modest impact

For COc1ccc(CN2CCC(c3cc(O)nc(N4CCCCC4)n3)CC2)cc1O the compound record lists impact on HDL uptake by HepG2 cells as modest impact

The recorded impact on HDL uptake by HepG2 cells for COCCNCC(=O)Nc1ccc2c(c1)OCCO2 is strong impact

# impact on HDL uptake by HepG2 cells of CCOC(=O)C(C)(C)CCCC[C@H](c1ccccc1Cl)N1CCc2sccc2C1 [Compound Ih (R-isomer)] = strong impact

Please turn your attention to the following entry.
Documented impact on HDL uptake by HepG2 cells of CN(C)c1ncc(CN2CCC(c3cc(O)nc(N4CCOCC4)n3)CC2)cn1 : strong impact

* * *

Hi there, I'd appreciate the recorded dose at which an effect on bile acids, bile cholesterol and bile phospholipids was shown for every entry that follows.
# Tested on: C57Bl6 mice
# PROTOCOL SUMMARY: Dose response on bile physiology after single oral gavage in mice
# Assay type: in vivo
# CONDITION NOTES: oral gavage 0.003, 0.03 and 0.3 mg/kg, bile analyzed 6 hours later
Use µg/kg as the unit, but write only the number.

Reported dose at which an effect on bile acids, bile cholesterol and bile phospholipids was shown ( COc1ccc(CN2CCC(c3cc(O)nc(N4CCCCC4)n3)CC2)cc1O ) = 300

Field dose at which an effect on bile acids, bile cholesterol and bile phospholipids was shown (entry O=C(C1OCCc2ccccc21)N1CCC2(CC1)Nc1ccccc1-n1cccc12 (centres unmarked) ) reads 300

Input CCOc1cc(C2CC(=O)Nc3c2cnn3-c2ccccc2CC)ccc1O (centres unmarked) . Output dose at which an effect on bile acids, bile cholesterol and bile phospholipids was shown: 3

Query COCCNCC(=O)Nc1ccc2c(c1)OCCO2 yields dose at which an effect on bile acids, bile cholesterol and bile phospholipids was shown of 3

Given item CN(C)c1ncc(CN2CCC(c3cc(O)nc(N4CCOCC4)n3)CC2)cn1 , the value recorded as its dose at which an effect on bile acids, bile cholesterol and bile phospholipids was shown is 3
